Let's look at some compounds and their measured Drug uptake.
assay: Permeability of the compound assessed as drug level in donor plate at 200 uM measured after 5 hrs at pH 7.4 by PAMPA; format: ADME; conditions: pH 7.4, 5 h
Field: numeric (µM). Do not append units.

Lab book: Drug uptake of NC(=O)N1c2ccccc2C=Cc2ccccc21 [CARBAMAZEPINE] noted as 171.6

Lab book: Drug uptake of "O=C1NC(=O)C(c2ccccc2)(c2ccccc2)N1" noted as 149.6

Lab book: Drug uptake of "CCCCCC(=O)N[C@H](C(=O)NCc1ccc(NC(=N)N)cc1)c1ccc(OCc2ccccc2)cc1.O=C(O)C(F)(F)F" noted as 171

Lab book: Drug uptake of "N=C(N)Nc1ccc(CNC(=O)[C@@H](NC(=O)c2cccc(Oc3ccccc3)c2)c2ccc(OCc3ccccc3)cc2)cc1.O=C(O)C(F)(F)F" noted as 168.9

Lab book: Drug uptake of "CCCCCCC(=O)N[C@H](C(=O)NCc1ccc(NC(=N)N)cc1)c1ccc(OCc2ccccc2)cc1.O=C(O)C(F)(F)F" noted as 167.3

Lab book: Drug uptake of "CCCCCCCC(=O)N[C@H](C(=O)NCc1ccc(NC(=N)N)cc1)c1ccc(OCc2ccccc2)cc1.O=C(O)C(F)(F)F" noted as 164.5

Lab book: Drug uptake of "N=C(N)Nc1ccc(CNC(=O)[C@@H](NC(=O)c2ccc(OC3CCCCC3)cc2)c2ccc(OCc3ccccc3)cc2)cc1.O=C(O)C(F)(F)F" noted as 177.4

Lab book: Drug uptake of "Cn1c(=O)c2c(ncn2C)n(C)c1=O" noted as 159.5

Lab book: Drug uptake of "N=C(N)Nc1ccc(CNC(=O)[C@@H](NC(=O)c2ccc(Oc3ccccc3)cc2)c2ccc(OCc3ccccc3)cc2)cc1.O=C(O)C(F)(F)F" noted as 154.5

* * *

biological target: Trypsin (Homo sapiens, UniProt P07477+P07478+P35030); assay: Inhibition of trypsin (unknown origin) at 50 uM using Boc-Val-Pro-Arg-AMC as substrate preincubated for 15 mins followed by substrate addition and measured for 15 mins by fluorimetric assay relative to control; assay type: protein assay; details: 0.25 h, 50 µM
Recorded metric: inhibition (INH)

CCCCCC(=O)N[C@H](C(=O)NCc1cccc(CNC(=N)N)c1)c1ccc(OCc2ccccc2)cc1 | Not Active
CCCCCC(=O)N[C@H](C(=O)NCc1ccc(NC(=N)N)cc1)c1ccc(OCc2ccccc2)cc1.O=C(O)C(F)(F)F | Not Active
CCCCCCCC(=O)N[C@H](C(=O)NCc1ccc(NC(=N)N)cc1)c1ccc(OCc2ccccc2)cc1.O=C(O)C(F)(F)F | Not Active
CC(=O)N[C@H](C(=O)NCc1ccc(NC(=N)N)cc1)c1ccc(OCc2ccccc2)cc1.O=C(O)C(F)(F)F | Not Active

* * *

molecular target: Genome polyprotein (dengue virus type 2, UniProt P29990); experiment: Inhibition of Dengue virus serotype 2 NS2B-NS3 protease expressed in Escherichia coli BL21 lambda (DE3) cells using Abz-Nle-Lys-Arg-Arg-Ser-3-(NO2)Tyr as substrate preincubated for 15 mins followed by substrate addition and measured for 15 mins by FRET assay
Recorded metric: pIC50
Would you please state pIC50, meaning minus log10 of the concentration in mol/L, as a bare number?

Please review the entries below; each comes with its answer.
N=C(N)Nc1ccc(CNC(=O)[C@@H](NC(=O)c2ccc(OC3CCCCC3)cc2)c2ccc(OCc3ccccc3)cc2)cc1.O=C(O)C(F)(F)F | 5.23
N=C(N)Nc1ccc(CNC(=O)[C@@H](NC(=O)c2ccc(Oc3ccccc3)cc2)c2ccc(OCc3ccccc3)cc2)cc1.O=C(O)C(F)(F)F | 5.40
CCCCCC(=O)N[C@@H](C(=O)NCc1ccc(CN)cc1)c1ccc(OCc2ccc(Cl)c(Cl)c2)cc1.O=C(O)C(F)(F)F | 5.51
N=C(N)Nc1ccc(CNC(=O)[C@@H](NC(=O)c2cccc(Oc3ccccc3)c2)c2ccc(OCc3ccccc3)cc2)cc1.O=C(O)C(F)(F)F | 5.31

Lab book: pIC50 of "N=C(N)NCc1ccc(CNC(=O)[C@H](NC(=O)c2ccc(Oc3ccccc3)cc2)c2ccc(OCc3ccc(Cl)c(Cl)c3)cc2)cc1.O=C(O)C(F)(F)F" noted as 5.60

Lab book: pIC50 of "CCCCCC(=O)N[C@H](C(=O)NCc1ccc(NC(=N)N)cc1)c1ccc(OCc2ccc(C#N)cc2)cc1.O=C(O)C(F)(F)F" noted as 4.40

Lab book: pIC50 of "CCCCCCCC(=O)N[C@H](C(=O)NCc1ccc(NC(=N)N)cc1)c1ccc(OCc2ccccc2)cc1.O=C(O)C(F)(F)F" noted as 5.32

Lab book: pIC50 of "CCCCCC(=O)N[C@@H](C(=O)NCc1ccc(NC(=N)N)cc1)c1ccc(OCc2ccc(C(F)(F)F)cc2)cc1.O=C(O)C(F)(F)F" noted as 5.18

Lab book: pIC50 of "COc1cccc(COc2ccc(C(=O)N[C@H](C(=O)NCc3ccc(NC(=N)N)cc3)c3ccc(OCc4ccccc4)cc3)cc2)c1.O=C(O)C(F)(F)F" noted as 5.33

* * *

molecular target: Genome polyprotein (West Nile virus); test: Inhibition of West Nile virus NS2B-NS3 protease expressed in Escherichia coli BL21 lambda (DE3) cells at 50 uM using Abz-Gly-Leu-Lys-Arg-Gly-Gly-3-(NO2)Tyr as substrate preincubated for 15 mins followed by substrate addition measured for 15 mins by fluorimetric analysis relative to control
Recorded metric: inhibition (%)
Field: numeric (%). Do not append units.

N=C(N)Nc1ccc(CNC(=O)[C@@H](NC(=O)Cc2ccc(-c3ccccc3)cc2)c2ccc(OCc3c(Cl)cccc3Cl)cc2)cc1.O=C(O)C(F)(F)F | 101

Lab book: inhibition of "CCCCCCCCCC(=O)N[C@H](C(=O)NCc1ccc(NC(=N)N)cc1)c1ccc(OCc2ccccc2)cc1.O=C(O)C(F)(F)F" noted as 102

Lab book: inhibition of "CCCCCC(=O)N[C@H](C(=O)Nc1ccc(CN)cc1)c1ccc(OCc2ccccc2)cc1.O=C(O)C(F)(F)F" noted as 37.6

* * *

test system: dengue virus type 2; experiment: Antiviral activity against DENV2 infected in human HuH7 cells assessed as reduction in virus titer measured after 48 hrs; format: functional, organism-based; conditions: Huh-7, 48 h
Let's look at some molecules and their measured EC50.
Express the reported value numerically, then name its unit.

Please review the entries below; each comes with its answer.
N=C(N)NCCC[C@H](NC(=O)c1ccccc1)C(=O)N[C@@H](CCCCN)C(=O)N[C@@H](C(N)=O)c1ccc(OCc2ccccc2)cc1 | 8.6 µM
CCCCCCCC(=O)N[C@H](C(=O)NCc1ccc(NC(=N)N)cc1)c1ccc(OCc2ccccc2)cc1.O=C(O)C(F)(F)F | 7.2 µM
N=C(N)Nc1ccc(CNC(=O)[C@@H](NC(=O)c2ccc(Oc3ccccc3)cc2)c2ccc(OCc3ccccc3)cc2)cc1.O=C(O)C(F)(F)F | 9.3 µM

Please find the next molecule below.
Lab book: EC50 of "CCCCCC(=O)N[C@H](C(=O)NCc1ccc(NC(=N)N)cc1)c1ccc(OCc2ccccc2)cc1.O=C(O)C(F)(F)F" noted as 0.89 µM

* * *

molecular target: Prothrombin (Homo sapiens); test: Inhibition of thrombin (unknown origin) at 25 uM using Boc-Val-Pro-Arg-AMC as substrate preincubated for 15 mins followed by substrate addition and measured for 15 mins by fluorimetric assay; conditions: 0.25 h
Recorded metric: inhibition (INH)

N=C(N)Nc1ccc(CNC(=O)[C@@H](NC(=O)c2ccc(-c3cccs3)s2)c2ccc(OCc3ccccc3)cc2)cc1.O=C(O)C(F)(F)F | Not Active
CCCCCC(=O)N[C@@H](C(=O)NCc1ccc(CN)cc1)c1ccc(OCc2ccc(Cl)c(Cl)c2)cc1.O=C(O)C(F)(F)F | Not Active
N=C(N)Nc1ccc(CNC(=O)[C@@H](NC(=O)c2ccc(-c3ccc(Cl)cc3)cc2)c2ccc(OCc3ccccc3)cc2)cc1.O=C(O)C(F)(F)F | Not Active
N=C(N)Nc1ccc(CNC(=O)[C@@H](NC(=O)c2ccc(OCc3ccc(Cl)cc3)cc2)c2ccc(OCc3ccccc3)cc2)cc1.O=C(O)C(F)(F)F | Not Active
N=C(N)Nc1ccc(CNC(=O)[C@@H](NC(=O)c2ccc(OC3CCCCC3)cc2)c2ccc(OCc3ccccc3)cc2)cc1.O=C(O)C(F)(F)F | Not Active

Lab book: inhibition (INH) of "CCCCCC(=O)N[C@H](C(=O)NCc1ccc(NC(=N)N)cc1)c1ccc(OCc2cccc(OC)c2)cc1.O=C(O)C(F)(F)F" noted as Not Active

Lab book: inhibition (INH) of "CCCCCC(=O)N[C@H](C(=O)NCc1ccc(C(=O)NN)cc1)c1ccc(OCc2ccccc2)cc1" noted as Not Active

* * *

biological target: Genome polyprotein (dengue virus type 2); experiment: Inhibition of Dengue virus serotype 2 NS2B-NS3 protease transfected in human HeLa cells measured after 24 hrs by Renilla-luciferase reporter gene assay
Let's look at some compounds and their measured log10(EC50).
A value of 2 here means EC50 of 100 in µM, since values are log10.

Please review the entries below; each comes with its answer.
CCCCCC(=O)N[C@H](C(=O)NCc1ccc(NC(=N)N)cc1)c1ccc(OCc2ccc(C(F)(F)F)cc2)cc1.O=C(O)C(F)(F)F | 0.48
CCCCCC(=O)N[C@@H](C(=O)NCc1ccc(NC(=N)N)cc1)c1ccc(OCc2ccc(Cl)c(Cl)c2)cc1.O=C(O)C(F)(F)F | 1.20
CCCCCC(=O)N[C@H](C(=O)NCc1ccc(CN(C)C)cc1)c1ccc(OCc2ccccc2)cc1 | 0.83

Lab book: log10(EC50) of "CCCCCC(=O)N[C@H](C(=O)NCc1ccc(NC(=N)N)nc1)c1ccc(OCc2ccccc2)cc1.O=C(O)C(F)(F)F" noted as 0.77

Lab book: log10(EC50) of "N=C(N)Nc1ccc(CNC(=O)[C@@H](NC(=O)c2ccc(OCc3ccccc3)cc2)c2ccc(OCc3ccccc3)cc2)cc1.O=C(O)C(F)(F)F" noted as 0.32

Lab book: log10(EC50) of "CCCCCCCC(=O)N[C@H](C(=O)NCc1ccc(NC(=N)N)cc1)c1ccc(OCc2ccccc2)cc1.O=C(O)C(F)(F)F" noted as -0.08

Lab book: log10(EC50) of "CCCCCCC(=O)N[C@H](C(=O)NCc1ccc(NC(=N)N)cc1)c1ccc(OCc2ccccc2)cc1.O=C(O)C(F)(F)F" noted as -0.28

Lab book: log10(EC50) of "N=C(N)Nc1ccc(CNC(=O)[C@@H](NC(=O)Cc2ccc(-c3ccccc3)cc2)c2ccc(OCc3c(Cl)cccc3Cl)cc2)cc1.O=C(O)C(F)(F)F" noted as 1.59

Lab book: log10(EC50) of "COc1cccc(COc2ccc(C(=O)N[C@H](C(=O)NCc3ccc(NC(=N)N)cc3)c3ccc(OCc4ccccc4)cc3)cc2)c1.O=C(O)C(F)(F)F" noted as 0.46

Lab book: log10(EC50) of "CCCCCC(=O)N[C@H](C(=O)NCc1ccc(NC(=N)N)cc1)c1ccc(OCc2ccccc2)cc1.O=C(O)C(F)(F)F" noted as -0.31

Lab book: log10(EC50) of "N=C(N)Nc1ccc(CNC(=O)[C@@H](NC(=O)c2ccc(OC3CCCCC3)cc2)c2ccc(OCc3ccccc3)cc2)cc1.O=C(O)C(F)(F)F" noted as 0.34
